# EXPERIMENT_DESCRIPTION: NCI Yeast Anticancer Drug Screen. Data for the mlh1 rad18 strain (AID 175)
# CONDITION_SET: S. cerevisiae mlh1 rad18 strain growth inhibition; at 50.0 µM (retest, dose inferred, filed as 5.0)
Compounds without any hit were thinned out: in the full panel of roughly 79,000, 15% have a hit. Active and inactive are the calls of the source. Cut-off read from the data, not from the text of the source: active = growth inhibition above about 70%; inactive = the rest.
Outcome field: choose from active, inactive

Take a look at these entries with their results.
>>> df
                                   molecule       cat
0  Cc1c(OCc2cccc3ccccc23)ccc2c(=O)cc(SCCN3CCOCC3)oc12  inactive
1  Cc1n(Cc2ccccc2)c2c([n+]1C)C(=O)c1ccccc1C2=O    active
2  O=P(C(=S)NC1CC2C=CC1C2)(c1ccccc1)c1ccccc1 (stereo unspecified)    active
3                  Nc1cc2ccc(O)cc2c2ccccc12    active
4  CC(c1ccccc1)c1ccc(O)cc1 (stereo unspecified)    active

# ---- query molecule ----
Check the results log: what was the call for Oc1ccc(/C=N/NC(=S)NN2CCOCC2)nc1 ?
active

// provenance: PubChem BioAssay (NCI)
